B1: Gem-associated protein 6 (Homo sapiens), Q8WXD5 (parent)
chain: MSEWMKKGPLEWQDYIYKEVRVTASEKNEYKGWVLTTDPVSANIVLVNFLEDGSMSVTGIMGHAVQTVETMNEGDHRVREKLMHLFTSGDCKAYSPEDLEERKNSLKKWLEKNHIPITEQGDAPRTLCVAGVLTIDPPYGPENCSSSNEIILSRVQDLIEGHLTASQ

Variants of: B1
Conditions: with gemi7_human GEMIN7, Q9H840
Sequence (Q9H840 whole entry): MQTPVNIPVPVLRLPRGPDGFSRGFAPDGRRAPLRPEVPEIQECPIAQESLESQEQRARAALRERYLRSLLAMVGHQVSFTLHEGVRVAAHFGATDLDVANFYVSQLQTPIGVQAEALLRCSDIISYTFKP
property measured: effect of a mutation on the interaction

variant notation	property measured	value
V57L	effect of a mutation on the interaction	with no effect
C91G	effect of a mutation on the interaction	with no effect
G8S	effect of a mutation on the interaction	with no effect
S25N	effect of a mutation on the interaction	with no effect
